System: SF-539 CNS
assay method text: NCI tumour cell line growth inhibition, 48 h
assay metric: TGI (µM)
Respond numerically; units are µM and should not be typed.

Check out these entries, answers already filled in.
compound	reading
CN(C)c1ccc(C(O)C2=CC(=O)c3ccccc3C2=O)cc1 (centres undefined)	6.08
N#C/C(=C(/O)CCl)c1nc2ccccc2o1	8.74
CCCCCCCCCCCCCCCC[n+]1ccccc1	2.35

Form field TGI, entry COc1ccc(-c2csc(Nc3cccc(-c4csc(C)n4)c3)n2)cc1 : 8.27

Form field TGI, entry O=[N+]([O-])/C=C/c1ccc(Cl)cc1[N+](=O)[O-] : 5.91

Form field TGI, entry COc1ccc(/C=C\c2cc(OC)c(OC)c(OC)c2)cc1 : 0.00384

Form field TGI, entry CN1CCC(C(O)(c2ccccc2)c2ccc(Br)cc2)CC1 (centres undefined) : 32.2

Form field TGI, entry C=CC(=O)Nc1cc2c(Nc3ccc(F)c(Cl)c3)ncnc2cc1C#CC(C)(C)N1CCN(C)CC1 : 2.99

Form field TGI, entry Cc1cc(C)nc(NS(=O)(=O)c2ccc(Nc3c4ccccc4nc4c(C(=O)NCCN(C)C)cccc34)cc2)n1 : 14.9

* * *

Tested on: SK-OV-3 ovarian
assay method text: NCI tumour cell line growth inhibition, 48 h; in the data active = GI50 below about 0.43 µM; inactive = the rest
Choose the fitting class; nothing outside active, inactive is accepted.

Previously resolved entries follow.
compound	target of assay	discrete label
COc1cc(/C=C2\SC(N3CCCCC3)=NC2=O)ccc1OCCCCCCOc1ccc(/C=C2\SC(N3CCCCC3)=NC2=O)cc1OC	SK-OV-3 ovarian	inactive
COc1cc(NC2CCCCC2O)c2nc(-c3ccc(Cl)cc3)ccc2c1 (stereo unspecified)	SK-OV-3 ovarian	inactive
CC(O)[C@H](NC(=O)N[C@@H](CC(N)=O)c1nc(N2CCNCC2)no1)C(=O)O (stereo partly specified)	SK-OV-3 ovarian	inactive
Nc1ccccc1C#Cc1ccccc1C#Cc1cccs1	SK-OV-3 ovarian	inactive

Please turn your attention to the following entry.
Inquiry: For CC1(C)C2CCC13C(=O)C1OC3(C2)C2C(=O)c3c(ccc4c3ccc3ccccc34)C(=O)C12 (stereo unspecified) , which call appears in the assay record?
Reply text: inactive

* * *

Recorded measurements of GI50, one per entry
System: IGROV1 ovarian
assay method text: NCI tumour cell line growth inhibition, 48 h

Check out these entries, answers already filled in.
molecule	GI50
N#Cc1cc(S(=O)(=O)Nc2nc3cc(Cl)ccc3o2)c(SCc2ccccc2)cc1Cl	15 µM
CCOc1ccc2cc(-c3nn(CC4CCNCC4)c4ncnc(N)c34)ccc2c1	11.7 µM
COc1cc(-c2nn(-c3cccc(NC(=O)CCNc4ccc(N5CCOCC5)cc4)c3)cc2-c2ccncc2)ccc1Cl	3.31 µM
CCOC(=O)c1c(NC(=O)c2ccc(Cl)cc2)sc2c(CN(C)C)c(O)ccc12	8.88 µM
COc1cccc(-c2nc3sccn3c2-c2ccnc(NCCCNS(=O)(=O)c3ccccc3)c2)c1	3.14 µM
C#C[C@]1(O)CC[C@H]2[C@@H]3CC=C4c5nc(N)sc5CC[C@]4(C)[C@H]3CC[C@@]21C	4.83 µM

Form field GI50, entry CC1(C)N=C(N)N=C(N)N1c1cccc(CCc2ccccc2)c1 : 0.113 µM

Form field GI50, entry CC[C@H]1OC(=O)[C@H](C)[C@@H](O[C@H]2C[C@@](C)(OC)[C@@H](O)[C@H](C)O2)[C@H](C)[C@@H](O[C@@H]2O[C@H](C)C[C@H](N(C)C)[C@H]2O)[C@](C)(OC)C/C(C)=C2/O[C@@]1(C)C=C2C : 1.59 µM

Form field GI50, entry C[As](C)SC1OCC(O)C(O)C1O (stereo not given) : 0.805 µM

Form field GI50, entry OCC(O)C(O)C(O)C(O)c1nnc2c(-c3ccccc3)nc3ccccc3n12 (stereo not given) : 14.5 µM

Form field GI50, entry COc1ccc(-c2c(N)noc2-c2cc(OC)c3c(c2)OCCO3)cc1 : 0.0177 µM

* * *

Tested on: U251 CNS
assay method text: NCI tumour cell line growth inhibition, 48 h
assay metric: TGI

Check out these entries, answers already filled in.
molecule	TGI
O=C(/C=C/c1ccccc1O)c1ccccc1Cl	> 100 µM
Cc1cc(C)nc(NS(=O)(=O)c2ccc(Nc3c4ccccc4nc4c(C(=O)NCCN(C)C)cccc34)cc2)n1	18.1 µM
CCOc1ccc(NC(=O)C(=O)Nn2c(N)nnc2N)cc1	> 100 µM

Form field TGI, entry COC(=O)/C=C\C(C#N)(C#N)N=Cc1ccc(OC)cc1 : 35.2 µM

Form field TGI, entry CC1=CCC(C(C)(C)NC(=O)c2ccccc2)C/C1=N/O (stereo unspecified) : > 100 µM

Form field TGI, entry Clc1ccc(CN2CCCN(Cc3ccc(Cl)cc3)C2c2cc3ccccc3c3ccccc23)cc1 : > 100 µM

* * *

System: SK-OV-3 ovarian
assay method text: NCI tumour cell line growth inhibition, 48 h
Recorded measurements of TGI, one per entry

compound	TGI
Cc1ccc(-c2cc(-c3ccc(Cl)cc3)nc(/N=C3\C(=O)N(CN(C)C)c4ccccc43)n2)cc1	> 100 µM
O=C(NCCNCCNC(=O)c1cc(-c2ccccc2)nc2ccccc12)c1cc(-c2ccccc2)nc2ccccc12	17.7 µM
C[C@H]1CC[P+](C)(c2ccccc2)C1 (stereo partly specified)	> 100 µM
Nc1nc(SCC(=O)c2ccc(Br)cc2)c2[nH]cnc2n1	> 100 µM
CCCc1cc(OC(=O)c2c(O)cc(OC)cc2CCC)cc(O)c1C(=O)O	68.4 µM
COc1ccc2[nH]c3c(c2c1)[C@H]1CCC(C(C)(C)C)C[C@H]1[C@H]1C(=O)N(c2ccccc2)C(=O)[C@@H]31 (stereo partly specified)	44.9 µM
CN(C)c1ccc(C(O)C2=CC(=O)c3ccccc3C2=O)cc1 (stereo unspecified)	15.5 µM
COc1cc(-c2nn(-c3cccc(NC(=O)CCN4CCN(c5ccccc5)CC4)c3)cc2-c2ccncc2)ccc1Cl	> 100 µM

Form field TGI, entry CCOc1ccc(NC(=O)C(=O)Nn2c(N)nnc2N)cc1 : > 100 µM

Form field TGI, entry Cc1cc(-c2nc3c(F)cccc3s2)ccc1N : > 100 µM

Form field TGI, entry O=C1NCN(c2ccccc2)C12CCN(CC1COc3ccccc3O1)CC2 (stereo unspecified) : > 100 µM

Form field TGI, entry O=C1NC2(CCNCC2)Oc2ccccc21 : > 100 µM

Form field TGI, entry O=CNc1ccccc1OCCOc1ccccc1NC=O : > 100 µM

Form field TGI, entry COc1cc([C@@H]2c3cc4c(cc3[C@@H](Nc3ccc(Cl)cc3C(=O)c3ccccc3)[C@H]3COC(=O)[C@H]23)OCO4)cc(OC)c1OC : > 100 µM

* * *

System: HCT-15 colon
assay method text: NCI tumour cell line growth inhibition, 48 h
Recorded measurements of TGI, one per entry

Check out these entries, answers already filled in.
molecule	assay metric	reading
CC(=O)/C(=C\I)c1ccccc1	TGI	3.35 µM
Cc1c(-c2ccccc2)[nH]c2cn[nH]c(=O)c12	TGI	> 100 µM
Nc1ncc2ncn(C3CCC(CO)O3)c2n1 (configuration not stated)	TGI	> 100 µM
CC(=O)Nc1cccc(N2C(=O)/C(=C\c3cccc(Oc4ccccc4)c3)SC2c2ccccc2)c1 (configuration not stated)	TGI	> 100 µM

Form field TGI, entry CCOC(=O)C(=CNc1ccc(F)c(F)c1)C(=O)OCC : > 100 µM

Form field TGI, entry Cn1nnc2c3c(N(CCO)CCO)ccnc3ccc21 : > 100 µM

Form field TGI, entry CCOC(=O)CCC(NC(=O)c1ccc(NC(OC)c2nc3cc(C(F)(F)F)ccc3nc2-c2ccccc2)cc1)C(=O)OCC (configuration not stated) : 34 µM

Form field TGI, entry O=C(/C=C/c1ccccc1O)c1ccccc1Cl : > 100 µM

Form field TGI, entry CN(C)CCN1CCc2c([nH]c3ccccc23)C1c1cccnc1 (configuration not stated) : > 100 µM

Form field TGI, entry Cc1cc(NS(=O)(=O)c2ccc(N=[N+]([O-])c3ccc(S(=O)(=O)Nc4cc(C)on4)cc3)cc2)no1 : > 100 µM

Form field TGI, entry COc1ccc2nc3ccc(OC)cc3c(SCCCl)c2c1 : > 100 µM

Form field TGI, entry CC(C)[C@H]1NC(=O)[C@H]2N=C(S[C@H]2C)[C@@H]2CCCN2C(=O)[C@H](Cc2ccccc2)NC(=O)[C@@H]2CSC(=N2)[C@@H](Cc2ccccc2)NC(=O)[C@@H]2CSC1=N2 : > 50 µM

Form field TGI, entry CSc1nc(=O)cnn1C : > 100 µM

* * *

Recorded measurements of TGI, one per entry
Test system: UO-31 renal
assay method text: NCI tumour cell line growth inhibition, 48 h

Check out these entries, answers already filled in.
compound	reading
N#[N+]c1ccc(Nc2ccccc2)cc1	> 50 µg/mL
Cc1c(-c2ccccc2)[nH]c2cn[nH]c(=O)c12	> 100 µM
O=C1Nc2ccc3c(c2/C1=C\c1cc2c(cc1Br)OCO2)OCO3	2.13 µM
CC(Oc1ccc(Cl)cc1Cl)C(=O)NN1C(=O)CC(=O)N(c2ccccc2)C1=S (stereo not given)	> 100 µM
Nc1nc(SCC(=O)c2ccc(Br)cc2)c2[nH]cnc2n1	> 100 µM
Cc1ccc(C2CC(c3ccc(Nc4ccnc5cc(Cl)ccc45)cc3)=NN2C=O)cc1 (stereo not given)	> 100 µM

Form field TGI, entry COc1ccc2c(c1OC)O/C(=C\c1ncc([N+](=O)[O-])n1C)C2=O : 4.39 µM

Form field TGI, entry C=C1C[C@@H]2O[C@H]3[C@H]4[C@@H](CC[C@@](C)(OC(=O)CCC)[C@H]42)[C@@H](C)C(=O)O[C@@]3(C)CC[C@H]1OO : 33.7 µM

Form field TGI, entry COc1cc(C2S/C(=C/c3ccccc3)C(=O)N2c2cccc(NC(C)=O)c2)cc(OC)c1OC (stereo not given) : > 100 µM

Form field TGI, entry CCOc1ccc2cc(-c3nn(CC4CCNCC4)c4ncnc(N)c34)ccc2c1 : 20.7 µM

Form field TGI, entry COc1cc2cc(C(=O)N3CC(CCl)c4ccc([N+](C)(C)Cc5ccccc5[N+](=O)[O-])cc43)[nH]c2c(OC)c1OC (stereo not given) : 5.17 µM

Form field TGI, entry O=C(/C=C/c1ccccc1O)c1ccccc1Cl : > 100 µM
